tested on: SK-MEL-5; assay: NCI tumour cell line growth inhibition, 48 h
Active and inactive are the calls of the source. Rule as the data show it: active = GI50 up to about 1.1 µM and inactive = higher.
parameter: GI50

>  <compound>
CC1(C)C(=O)c2ccccc2OC1N1CCN(C2Oc3ccccc3C(=O)C2(C)C)CC1 (stereo unspecified)

>  <parameter>
GI50

>  <result>
> 100 µM (inactive)

$$$$
>  <compound>
Clc1nc(Cl)nc(Nc2cccc3ccccc23)n1

>  <parameter>
GI50

>  <result>
> 10 µM (inactive)

$$$$
>  <compound>
Nc1nc(N)c2ncn(CCCC(c3ccccc3)P(=O)(O)O)c2n1 (stereo unspecified)

>  <parameter>
GI50

>  <result>
> 100 µM (inactive)

$$$$
>  <compound>
c1ccc(/N=C2\S/C(=N\C3CCCCC3)N(C3CCCCC3)\C2=N/c2ccccc2)cc1

>  <parameter>
GI50

>  <result>
80.4 µM (inactive)

$$$$
>  <compound>
CC1(C)CCCCCC(O)C(O)CCC(C)(C)C1=O (stereo unspecified)

>  <parameter>
GI50

>  <result>
> 100 µM (inactive)

$$$$

QUERY: Would you kindly share the measured GI50 for Cc1c(C(=O)CSc2nc3ccccc3[nH]2)c(=O)n(-c2ccccc2)n1C ?
RESULT: > 100 µM (inactive)

----------
test system: TK-10; assay: NCI tumour cell line growth inhibition, 48 h
Active and inactive are the calls of the source. Rule as the data show it: active = GI50 up to about 1.1 µM and inactive = higher.
parameter: GI50

>  <molecule>
CCN1CC2=C(NC(=S)NC2c2ccc(Cl)cc2)/C(=C/c2ccc(Cl)cc2)C1 (centres undefined)

>  <parameter>
GI50

>  <result>
> 100 µM (inactive)

$$$$
>  <molecule>
COc1cccc2c1C(=O)c1c(O)c3c(c(O)c1C2=O)C[C@@](O)(C(C)O)C[C@@H]3OC1CC(N)C(O)C(C)O1 (some centres undefined)

>  <parameter>
GI50

>  <result>
2.5 µM (inactive)

$$$$
>  <molecule>
COc1ccc(C2C(C)C(=O)C(C)C(c3ccc(OC)cc3)N2N=O)cc1 (centres undefined)

>  <parameter>
GI50

>  <result>
90.6 µM (inactive)

$$$$

# input for lookup
QUERY: Would you kindly share the measured GI50 for COC(=O)c1cc(-c2ccc(-c3ccc(O)cc3)cc2)cc(-c2ccc(-c3ccc(O)cc3)cc2)c1 ?
RESULT: 13.6 µM (inactive)

----------
tested on: SN12C; assay: NCI tumour cell line growth inhibition, 48 h
Calls of active or inactive are those of the source. Cut-off read from the data, not from the text of the source: active = GI50 up to about 1.1 µM and inactive = higher.
// allowed return values: active, inactive

Reference set, count: 2
>  <compound>
C=CCNC1=C(C(=O)OCC)C(=O)CO1

>  <qualitative_label>
inactive

$$$$
>  <compound>
Nc1c(O)c(C(=O)O)cc2ccccc12

>  <qualitative_label>
inactive

$$$$

QUERY: Field: outcome | Entry: CC(=O)Nc1ccc(C(=O)NN2C(=O)C(Cl)C2c2ccc(O)cc2)cc1 (centres undefined)
RESULT: inactive

QUERY: Same question, O=C(O)CNS(=O)(=O)c1ccc(NC(=O)Nc2ccccc2)cc1 this time
RESULT: inactive

QUERY: Same question, CCCn1cc2c(O)nc(SC)nc2n1 this time
RESULT: inactive

QUERY: Same question, C[C@H](CCC(=O)O[C@@H]1CC[C@@]2(C)C(CC[C@H]3[C@@H]4CC[C@H]([C@H](C)CCc5nc6ccccc6[nH]5)[C@@]4(C)CC[C@@H]32)C1)[C@H]1CC[C@H]2[C@@H]3CCC4C[C@H](O)CC[C@]4(C)[C@H]3CC[C@]12C (some centres undefined) this time
RESULT: inactive

QUERY: Same question, CCn1c2c(c3ccccc31)[C@@H](c1ccc(Cl)cc1)CC1C(=O)N(c3ccccc3)C(=O)C21 (some centres undefined) this time
RESULT: inactive

QUERY: Same question, O=C(O)CNC(=O)c1c2ccccc2nc2ccccc12 this time
RESULT: inactive

QUERY: Same question, O=C(CCCN1CCC(Nc2ccc(F)cc2)(c2nnnn2C2CCCCC2)CC1)c1ccc(F)cc1 this time
RESULT: inactive

QUERY: Same question, CC(C)=CCC/C(C)=C/CCC(C(=O)COCc1ccccc1)P1(=O)OC(C)(C)CN1C(C)(C)C (centres undefined) this time
RESULT: inactive

QUERY: Same question, O=[N+]([O-])c1nccn1COCCBr this time
RESULT: inactive

QUERY: Same question, O=c1ccn2n1CCCCC2 this time
RESULT: inactive

QUERY: Same question, C=C(C)C12CC3CC/C(=N/O)C(C1)C3(N1CCOCC1)C/C2=N/O (centres undefined) this time
RESULT: inactive

QUERY: Same question, C=C1[C@@H]2CCC3[C@]4(C)C(CC[C@@]5(C)C(=O)O[C@H](O)[C@@H]45)[C@H](O)[C@]3(C2)[C@H]1OC1OC(CO)C(O)C(O)C1O (some centres undefined) this time
RESULT: inactive

QUERY: Same question, c1ccc(/N=C2\S/C(=N\C3CCCCC3)N(C3CCCCC3)\C2=N/c2ccccc2)cc1 this time
RESULT: inactive

QUERY: Same question, COC(=O)c1c(O)ccc2c1c1c(n2Cc2cccc(C)c2)C(=O)c2ccccc2C1=O this time
RESULT: inactive

QUERY: Same question, Cc1cnc(NCCCN(C)C)c2c1[nH]c1ccc3cc(O)ccc3c12 this time
RESULT: active

QUERY: Same question, OC1(c2ccc3ccccc3c2)c2c(c3ccccc3c3ccccc23)C2=NCCN21 (centres undefined) this time
RESULT: inactive

QUERY: Same question, COc1cc(C(=O)N(C(=O)N2CCCCC2)c2ccccc2)cc(OC)c1OC this time
RESULT: inactive

Entry source: ChEMBL document CHEMBL1201862
